Target Or System: Peroxisome proliferator-activated receptor gamma (Homo sapiens)
Protocol Summary: OT_PPARg_PPARgSRC1_1440: Odyssey Thera (OT) 24-hour Protein-Complementation Assay for Peroxisome Proliferator-activated Receptor Gamma/ SRC-1 Co-activator (AID 2283388);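 also: nuclear to cytoplasmic ratio of reconstituted Venus YFP fluorescence in fixed imaged cells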
Calls of active or inactive are those of the source. The calls were made as follows: active = hit-call score of the fitted dose curve at least 0.9, where 1 is the maximum; inconclusive = response in the unintended direction; inactive = score below 0.9.
Measured Attribute: outcome

Record excerpt, results attached:
>  <Molecule>
CON=C(C(=O)OC)c1ccccc1CON=C(C)c1cccc(C(F)(F)F)c1

>  <outcome>
inactive

$$$$
>  <Molecule>
CCOP(=S)(Oc1cnc(C(C)(C)C)nc1)OC(C)C (stereo unspecified)

>  <outcome>
inactive

$$$$
>  <Molecule>
CCc1cccc(CC)c1N(COC)C(=O)CCl

>  <outcome>
inactive

$$$$
>  <Molecule>
C[N+]1(C)CCCCC1

>  <outcome>
inactive

$$$$
>  <Molecule>
CNC(=O)ON=C(C)SC

>  <outcome>
inactive

$$$$
>  <Molecule>
CC(COc1ccc(Oc2ccccc2)cc1)Oc1ccccn1 (stereo unspecified)

>  <outcome>
inactive

$$$$
>  <Molecule>
CCOC(=O)COc1cc(-c2nn(C)c(OC(F)F)c2Cl)c(F)cc1Cl

>  <outcome>
inactive

$$$$
>  <Molecule>
O=[N+]([O-])c1cc(C(F)(F)F)c(Cl)c([N+](=O)[O-])c1Nc1ncc(C(F)(F)F)cc1Cl

>  <outcome>
inactive

$$$$

For each entry beneath this line, provide reported outcome.
1. CC(C)[C@H](C(=O)O[C@H](C#N)c1cccc(Oc2ccccc2)c1)c1ccc(Cl)cc1
2. COc1cccc(C(=O)NN(C(=O)c2cc(C)cc(C)c2)C(C)(C)C)c1C
3. CC1(C(=O)Nc2ccc(O)c(Cl)c2Cl)CCCCC1

1. inactive
2. inactive
3. inactive

Data provenance: PubChem BioAssay (EPA / NIEHS)
